FYI, the data here is from patent US20250215039A1.

# Tested on: cancer cell lines
# measurement.protocol: Cancer cell proliferation activity (CellTiterGlo, 72 h)
# Format: cell-based
# test.context: Homo sapiens, BXPC-3, 72 h, BXPC3 (pancreas), 72 h; read-out: IC50 cell proliferation
# Method: Dose response relationships on cell proliferation was assessed for representative Compounds of the Disclosure on cancer cell lines. […] Cells were cultured in the appropriate media. […] After incubation for 72 h at 37° C. at 5% or 10% CO2 dependent on the medium, cell plates were equilibrated to room temperature for one hour, CellTiterGlo reagent (Promega) was added and luminescence was measured approximately an hour later using a luminometer. […]
pIC50: −log10 of the molar value.
recorded.metric: pIC50

Record excerpt, results attached:
>  <smiles.repr>
C[C@]1(CO)O[C@@H](n2cnc3c(O)nc(N)nc32)C[C@@H]1O

>  <recorded.metric>
pIC50

>  <observed.result>
< 4.30

$$$$
>  <smiles.repr>
C#C[C@]1(CO)O[C@@H](n2cnc3c(=O)[nH]c(N)nc32)[C@H](F)[C@@H]1O

>  <recorded.metric>
pIC50

>  <observed.result>
< 4.30

$$$$

API: the following record is the query input.
Any idea what pIC50 came out for C[C@]1(CO)O[C@@H](n2ccc(N)nc2=O)C(F)(F)[C@@H]1O on cancer cell lines? < 4.30

---

Reported values of IC50 for individual entries
# Test system: cancer cell lines
# measurement.protocol: Cancer cell proliferation activity (CellTiterGlo, 72 h)
# Format: cell-based
# test.context: Homo sapiens, Kasumi 1, 72 h, KASUMI-1 cell line (hematological), 72 h; read-out: IC50

>  <compound>
O=c1[nH]c(=O)n([C@H]2C[C@H](O)[C@](CO)(CF)O2)cc1F [Cpd. No. 112]

>  <IC50>
> 50 µM

$$$$

So what does the record say about IC50 for C[C@]1(CO)O[C@@H](n2cc(F)c(=O)[nH]c2=O)C[C@@H]1O [Cpd. No. 105] ? > 50 µM

So what does the record say about IC50 for CC[C@]1(CO)O[C@@H](n2cc(F)c(N)nc2=O)C[C@@H]1O [Cpd. No. 2] ? > 50 µM

---

Reported values of IC50 for individual entries
# Test system: cancer cell lines
# measurement.protocol: Cancer cell proliferation activity (CellTiterGlo, 72 h)
# Type: cell-based
# test.context: NCI-H358M, 72 h, NCIH358M cell line (lung), 72 h; read-out: IC50

Record excerpt, results attached:
>  <smiles.repr>
CC[C@]1(CO)O[C@@H](n2cc(F)c(N)nc2=O)C[C@@H]1O

>  <test.system>
cancer cell lines

>  <IC50>
> 50 µM

$$$$
>  <smiles.repr>
Cc1cn([C@H]2C[C@H](O)[C@@](C#N)(CO)O2)c(=O)[nH]c1=O

>  <test.system>
cancer cell lines

>  <IC50>
> 50 µM

$$$$

API: the following record is the query input.
So what does the record say about IC50 for N#C[C@]1(CO)O[C@@H](n2cc(F)c(N)nc2=O)C[C@@H]1O ? > 50 µM

---

# Tested on: cancer cell lines
# measurement.protocol: Cancer cell proliferation activity (CellTiterGlo, 72 h)
# Format: cell-based
# test.context: Homo sapiens, ASPC1, 72 h, ASPC1 (pancreas), 72 h; read-out: IC50 cell proliferation
Reported values of IC50 for individual entries
Numeric answer only, unit nM assumed.

So what does the record say about IC50 for C#C[C@]1(CO)O[C@@H](n2cnc3c(=O)[nH]c(N)nc32)[C@H](F)[C@@H]1O [compound 95] ? 4620

So what does the record say about IC50 for Nc1nc(F)nc2c1ncn2[C@H]1C[C@H](O)[C@](CO)(CC2CC2)O1 [Cpd. No. 130] ? 620

So what does the record say about IC50 for Nc1nc(F)nc2c1ncn2[C@H]1C[C@H](O)[C@](CO)(C2CC2)O1 [Cpd. No. 5] ? 2620

So what does the record say about IC50 for C[C@]1(CO)O[C@@H](n2cnc3c(N)nc(F)nc32)[C@H](O)[C@@H]1O [Cpd. No. 178] ? 30

So what does the record say about IC50 for Nc1nc(F)nc2c1ncn2[C@H]1C[C@H](O)[C@@H](CO)O1 [compound 171] ? 320

---

# Test system: cancer cell lines
# measurement.protocol: Cancer cell proliferation activity (CellTiterGlo, 72 h)
# Format: cell-based
# test.context: 72 h, CLS439 (bladder), 72 h; read-out: IC50 cell proliferation
Reported values of IC50 for individual entries
Numeric answer only, unit µM assumed.

Record excerpt, results attached:
>  <molecule>
Nc1nc(F)nc2c1ncn2[C@@H]1O[C@H](CO)[C@@H](O)[C@H]1O [compound 184]

>  <test.system>
cancer cell lines

>  <unit>
µM

>  <observed.result>
0.06

$$$$
>  <molecule>
Nc1ccn([C@H]2C[C@H](O)[C@](CO)(CF)O2)c(=O)n1 [Cpd. No. 198]

>  <test.system>
cancer cell lines

>  <unit>
µM

>  <observed.result>
2.27

$$$$

API: the following record is the query input.
So what does the record say about IC50 for Nc1nc(F)nc2c1ncn2[C@@H]1O[C@H](CO)[C@@H](O)[C@@H]1O [compound 170] ? 45.5

---

# Test system: cancer cell lines
# measurement.protocol: Cancer cell proliferation activity (CellTiterGlo, 72 h)
# Assay type: cell-based
# test.context: 72 h, CLS439 cell line (bladder), 72 h; read-out: IC50
recorded.metric: IC50 (µM)
Numeric answer only, unit µM assumed.

Record excerpt, results attached:
>  <compound>
Nc1ccn([C@@H]2O[C@H](CO)[C@@H](O)C2(F)F)c(=O)n1 [gemcitabine, reference compound]

>  <test.system>
cancer cell lines

>  <IC50 [µM]>
0.0035

$$$$
>  <compound>
CCC[C@]1(CO)O[C@@H](n2cnc3c(N)nc(F)nc32)C[C@@H]1O

>  <test.system>
cancer cell lines

>  <IC50 [µM]>
3.26

$$$$
>  <compound>
CC[C@]1(CO)O[C@@H](n2cnc3c(N)nc(F)nc32)[C@H](O)[C@@H]1O

>  <test.system>
cancer cell lines

>  <IC50 [µM]>
0.61

$$$$

API: the following record is the query input.
So what does the record say about IC50 for C[C@]1(CO)O[C@@H](n2cc(F)c(N)nc2=O)C[C@@H]1O ? 17.6

---

# Tested on: cancer cell lines
# measurement.protocol: Cancer cell proliferation activity (CellTiterGlo, 72 h)
# Type: cell-based
# test.context: Homo sapiens, MDA-MB-468, 72 h, MDAMB468 (breast), 72 h; read-out: IC50 cell proliferation
recorded.metric: pIC50
By convention, pIC50 is the negative base-10 log of a molar concentration.

Record excerpt, results attached:
>  <compound>
CCC[C@]1(CO)O[C@@H](n2cnc3c(N)nc(F)nc32)[C@H](O)[C@@H]1O [compound 195]

>  <recorded.metric>
pIC50

>  <observed.result>
7.15

$$$$
>  <compound>
Nc1nc(F)nc2c1ncn2[C@@H]1O[C@H](CO)[C@@H](O)[C@H]1O [compound 184]

>  <recorded.metric>
pIC50

>  <observed.result>
7.10

$$$$

So what does the record say about pIC50 for C[C@]1(CO)O[C@@H](n2cnc3c(N)nc(F)nc32)[C@H](O)[C@@H]1O [Cpd. No. 178] ? 7.05

---

# Tested on: cancer cell lines
# measurement.protocol: Cancer cell proliferation activity (CellTiterGlo, 72 h)
# Type: cell-based
# test.context: Homo sapiens, IGROV-1, 72 h, IGROV1 cell line (ovary), 72 h; read-out: IC50
# Method: Dose response relationships on cell proliferation was assessed for representative Compounds of the Disclosure on cancer cell lines. […] Cells were cultured in the appropriate media. […] After incubation for 72 h at 37° C. at 5% or 10% CO2 dependent on the medium, cell plates were equilibrated to room temperature for one hour, CellTiterGlo reagent (Promega) was added and luminescence was measured approximately an hour later using a luminometer. […]
recorded.metric: IC50

Record excerpt, results attached:
>  <smiles.repr>
CC[C@]1(CO)O[C@@H](n2cc(F)c(N)nc2=O)C[C@@H]1O

>  <IC50>
> 50 µM

$$$$
>  <smiles.repr>
C=C[C@]1(CO)O[C@@H](Nc2[nH]c(=O)ncc2Br)C[C@@H]1O

>  <IC50>
> 50 µM

$$$$

Any idea what IC50 came out for N#C[C@]1(CO)O[C@@H](n2cc(F)c(N)nc2=O)C[C@@H]1O on cancer cell lines? > 50 µM

---

Reported values of pIC50 for individual entries
# System: cancer cell lines
# measurement.protocol: Cancer cell proliferation activity (CellTiterGlo, 72 h)
# Type: cell-based
# test.context: Homo sapiens, SAOS-2, 72 h, SAOS2 (bone), 72 h; read-out: IC50 cell proliferation
By convention, pIC50 is the negative base-10 log of a molar concentration.

Record excerpt, results attached:
>  <smiles.repr>
Nc1nc(F)nc2c1ncn2[C@H]1C[C@H](O)[C@@H](CO)O1

>  <pIC50>
6.96

$$$$
>  <smiles.repr>
Nc1ccn([C@H]2C[C@H](O)[C@](CO)(CF)O2)c(=O)n1

>  <pIC50>
6.96

$$$$

API: the following record is the query input.
So what does the record say about pIC50 for CCC[C@]1(CO)O[C@@H](n2cnc3c(N)nc(F)nc32)[C@H](O)[C@@H]1O ? 7.00
